targetOrSystem: UniProtKB P25100
Sequence (P25100 whole entry): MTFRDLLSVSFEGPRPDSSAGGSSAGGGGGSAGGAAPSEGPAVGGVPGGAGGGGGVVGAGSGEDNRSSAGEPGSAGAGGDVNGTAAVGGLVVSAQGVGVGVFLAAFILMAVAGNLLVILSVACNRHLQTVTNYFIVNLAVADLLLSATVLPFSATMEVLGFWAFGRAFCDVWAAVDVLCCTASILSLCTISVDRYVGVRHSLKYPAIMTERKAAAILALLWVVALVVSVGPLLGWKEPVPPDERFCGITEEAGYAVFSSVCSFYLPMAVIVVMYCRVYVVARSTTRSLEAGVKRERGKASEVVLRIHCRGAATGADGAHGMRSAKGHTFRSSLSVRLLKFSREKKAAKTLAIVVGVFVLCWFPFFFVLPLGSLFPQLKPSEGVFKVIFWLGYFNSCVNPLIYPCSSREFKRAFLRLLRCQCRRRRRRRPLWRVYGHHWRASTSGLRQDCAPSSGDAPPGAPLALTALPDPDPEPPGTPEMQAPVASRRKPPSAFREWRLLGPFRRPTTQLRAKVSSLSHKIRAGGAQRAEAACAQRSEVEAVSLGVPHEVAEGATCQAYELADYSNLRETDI
protocolDetails: Agonism of recombinant human alpha-1D adrenergic receptor, expressed in rat 1 fibroblast cells
Documented EC50 across a set of compounds

These solved cases illustrate the format of a correct answer.
CCn1ccc(-c2ccccc2NCC2=NCCN2)n1: > 100 µM
CC(C)n1nccc1-c1ccccc1NCC1=NCCN1: > 100 µM
Cc1ccc(-c2ccccc2NCC2=NCCN2)n1C: > 100 µM
CCCn1nccc1-c1ccccc1NCC1=NCCN1: > 100 µM

Fill in the blank: the reported EC50 of "FC(F)(F)Cn1nccc1-c1ccccc1NCC1=NCCN1" is ____.
> 100 µM

Fill in the blank: the reported EC50 of "CCn1cccc1-c1ccccc1NCC1=NCCN1" is ____.
> 100 µM

Fill in the blank: the reported EC50 of "CCn1cc(-c2ccccc2NCC2=NCCN2)cn1" is ____.
> 100 µM

Fill in the blank: the reported EC50 of "Cn1cc(-c2ccccc2NCC2=NCCN2)cn1" is ____.
> 100 µM

Fill in the blank: the reported EC50 of "FC(F)(F)Cn1ncnc1-c1ccccc1NCC1=NCCN1" is ____.
> 100 µM

Fill in the blank: the reported EC50 of "CCn1nccc1-c1ccccc1NCC1=NCCN1" is ____.
> 100 µM

Fill in the blank: the reported EC50 of "Cn1nccc1-c1ccccc1NCC1=NCCN1" is ____.
> 100 µM

Fill in the blank: the reported EC50 of "Cc1n[nH]c(-c2ccccc2NCC2=NCCN2)n1" is ____.
> 5.01 µM

Fill in the blank: the reported EC50 of "Cc1nc(-c2ccccc2NCC2=NCCN2)n(C)n1" is ____.
> 5.01 µM
